The measurements presented in this section are drawn from patent US20180000085A1.

Test system: Puccinia triticina
Experiment: Wheat brown rust (PUCCRT) disease control on wheat seedlings
Assay type: in vivo
Conditions: low volume application, 125.1 g/H, 3 Day Curative
Method: All fungicides were evaluated using the aforementioned method for their activity vs. all target diseases, unless stated otherwise. Wheat leaf blotch and brown rust activity were also evaluated using track spray applications, in which case the fungicides were formulated as EC formulations, containing 0.1% Trycol 5941 in the spray solutions. […] Percent disease control was calculated using the ratio of disease severity on treated plants relative to untreated plants. […]
property name: PUCCRT 3DC, LV activity at 125.1 g/H (% Control rating)

compound	result
COc1ccnc(C(=O)N[C@@H](C)C(=O)O[C@@H](C)[C@H](Oc2ccccc2)C(C)C)c1OCOC(C)=O [Cmpd 475]	A (> 80)
COc1ccnc(C(=O)N[C@@H](C)C(=O)O[C@@H](C)[C@H](Oc2cccc(F)c2)c2ccccc2)c1OC(C)=O [Cmpd 575]	A (> 80)
CCCO[C@@H]([C@H](C)OC(=O)[C@H](C)NC(=O)c1nccc(OC)c1OC(C)=O)[C@H](CC)Oc1ccccc1 [Cmpd 511]	A (> 80)
